Tested on: mouse carcinogenicity bioassay, TD50 from CPDB
protocol_summary: DSSTox (CPDBAS) Carcinogenic Potency Database Summary Mouse Bioassay Results
measurement_conditions: TD50_Mouse_Note: positive test results only by intraperitoneal or intravenous injection; TD50 is harmonic mean of more than one positive; TargetSites_Mouse_Female: hematopoietic system
measurement_kind: Potency

Please give the measured Potency for this compound: S=P(N1CC1)(N1CC1)N1CC1
0.00118 mmol/kg/day

====

System: mouse carcinogenicity bioassay, TD50 from CPDB
protocol_summary: DSSTox (CPDBAS) Carcinogenic Potency Database Summary Mouse Bioassay Results
measurement_conditions: TargetSites_Mouse_Female: thyroid gland
# reported Potency; entries follow

In [3]: df
Out[3]:
   record_smiles           result
0      CC(C)(C)O  295 mmol/kg/day

Would you kindly look at the next entry?
Name the reported Potency value associated with the molecule CCc1cc(C(N)=S)ccn1
0.417 mmol/kg/day

====

System: mouse carcinogenicity bioassay, TD50 from CPDB
protocol_summary: DSSTox (CPDBAS) Carcinogenic Potency Database Summary Mouse Bioassay Results
measurement_conditions: TargetSites_Mouse_Female: urinary bladder; vascular system
measurement_kind: Potency

Query: Potency; subject: Nc1ccc(Oc2ccc(Cl)cc2)cc1
1.58 mmol/kg/day

====

Measured Potency, listed per entry for reference.
Tested on: mouse carcinogenicity bioassay, TD50 from CPDB
protocol_summary: DSSTox (CPDBAS) Carcinogenic Potency Database Summary Mouse Bioassay Results
measurement_conditions: TD50_Mouse_Note: TD50 is harmonic mean of more than one positive test; harmonic mean of TD50 includes a value for upper 99% confidence li; TargetSites_Mouse_Female: liver

Some entries whose results are on file:
>>> df
                                   molecule               result
0                                   CC(N)=S    0.117 mmol/kg/day
1  ClC1=C(Cl)[C@]2(Cl)[C@@H]3[C@@H]4C[C@@H]([C@H]5O[C@@H]45)[C@@H]3[C@@]1(Cl)C2(Cl)Cl  0.00239 mmol/kg/day
2                      Nc1ccc2oc3ccccc3c2c1   0.0231 mmol/kg/day
3            CCC1(c2ccccc2)C(=O)NC(=O)NC1=O   0.0317 mmol/kg/day
4  ClC1C(Cl)C(Cl)C(Cl)C(Cl)C1Cl (stereo not drawn)   0.0509 mmol/kg/day
5         CNc1ccc(N(CCO)CCO)cc1[N+](=O)[O-]    0.338 mmol/kg/day
6                       C=CCc1ccc2c(c1)OCO2    0.316 mmol/kg/day

So what's the measured Potency for this one? CCC1(c2ccccc2)C(=O)N=C(O)NC1=O (stereo not drawn)
0.117 mmol/kg/day

====

Tested on: mouse carcinogenicity bioassay, TD50 from CPDB
protocol_summary: DSSTox (CPDBAS) Carcinogenic Potency Database Summary Mouse Bioassay Results
measurement_conditions: TD50_Mouse_Note: no positive results
Active and inactive are the calls of the source.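 The calls were made as follows: active = a tumour-causing dose and a tumour site recorded for mice in at least one sex group; inconclusive = only government mouse studies exist and were judged inadequate; inactive = mouse studies exist but none gave tumours.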
measurement_kind: outcome

                              record_smiles  measurement_kind    result
0  C=C1CC[C@H](O)C/C1=C/C=C1\CCC[C@]2(C)[C@@H]([C@H](C)/C=C/[C@H](C)C(C)C)CC[C@@H]12           outcome  inactive
1                                      [Se]           outcome  inactive
2                                  O=[Se]=O           outcome  inactive

====

System: mouse carcinogenicity bioassay, TD50 from CPDB
protocol_summary: DSSTox (CPDBAS) Carcinogenic Potency Database Summary Mouse Bioassay Results
measurement_conditions: TD50_Mouse_Note: TD50 is harmonic mean of more than one positive test; TargetSites_Mouse_Female: harderian gland; liver; lung; ovary
measurement_kind: Potency

Given the entry C=CC(=O)NCO , report its measured Potency.
0.263 mmol/kg/day

====

System: mouse carcinogenicity bioassay, TD50 from CPDB
protocol_summary: DSSTox (CPDBAS) Carcinogenic Potency Database Summary Mouse Bioassay Results
measurement_conditions: TD50_Mouse_Note: TD50 is harmonic mean of more than one positive test; TargetSites_Mouse_Female: liver
Each entry below carries its recorded Potency.

>>> print(df.to_string())
               molecule                             tested_target  measurement_kind             result
0           Cc1ncc[nH]1  mouse carcinogenicity bioassay, TD50 from CPDB           Potency   9.52 mmol/kg/day
1        ClC(Cl)C(Cl)Cl  mouse carcinogenicity bioassay, TD50 from CPDB           Potency  0.228 mmol/kg/day
2  O=c1cc[nH]c(=S)[nH]1  mouse carcinogenicity bioassay, TD50 from CPDB           Potency  0.429 mmol/kg/day

Need Potency, item O=[N+]([O-])c1ccc(Oc2ccc(Cl)cc2Cl)cc1
0.405 mmol/kg/day

// same read-out, input: CCCCC(CC)COC(=O)CCCCC(=O)OCC(CC)CCCC (configuration not stated)
10.5 mmol/kg/day

Queued: C[C@@H]1Cc2c(Cl)cc(C(=O)N[C@@H](Cc3ccccc3)C(=O)O)c(O)c2C(=O)O1
0.0159 mmol/kg/day

Cool, now CCC1(c2ccccc2)C(=O)NCNC1=O
0.12 mmol/kg/day

Same read-out for Cc1c([N+](=O)[O-])c(C)c([N+](=O)[O-])c(C(C)(C)C)c1[N+](=O)[O-] ?
0.427 mmol/kg/day

====

System: mouse carcinogenicity bioassay, TD50 from CPDB
protocol_summary: DSSTox (CPDBAS) Carcinogenic Potency Database Summary Mouse Bioassay Results
measurement_conditions: TD50_Mouse_Note: no positive results are statistically significant; TargetSites_Mouse_Female: no positive results
measurement_kind: Potency

>>> print(df.to_string())
                   record_smiles             result
0  COc1cc(-c2ccc(N)c(OC)c2)ccc1N  0.233 mmol/kg/day

Let us move to another entry and its Potency.
Tell me reported Potency for Cc1cccc(N)c1 , tested with mouse carcinogenicity bioassay, TD50 from CPDB.
10 mmol/kg/day

====

Tested on: mouse carcinogenicity bioassay, TD50 from CPDB
protocol_summary: DSSTox (CPDBAS) Carcinogenic Potency Database Summary Mouse Bioassay Results
measurement_conditions: TargetSites_Mouse_Female: liver; vascular system
measurement_kind: Potency

# query: Potency of entry Cc1ccc(N=C=O)cc1N=C=O
1.44 mmol/kg/day

====

Reported Potency values for the following compounds.
Test system: mouse carcinogenicity bioassay, TD50 from CPDB
protocol_summary: DSSTox (CPDBAS) Carcinogenic Potency Database Summary Mouse Bioassay Results
measurement_conditions: TargetSites_Mouse_Female: liver

// solved cases for Potency follow
>>> print(df.to_string())
                      record_smiles                             tested_target            result
0  CC(=O)Nc1ccc(N=Nc2cc(C)ccc2O)cc1  mouse carcinogenicity bioassay, TD50 from CPDB  3.79 mmol/kg/day
1                        COC(C)(C)C  mouse carcinogenicity bioassay, TD50 from CPDB  74.3 mmol/kg/day

Now consider a different compound.
So what does the record say about Potency for CCCN(CCC)S(=O)(=O)c1ccc(C(=O)O)cc1 ?
1.89 mmol/kg/day

====

System: mouse carcinogenicity bioassay, TD50 from CPDB
protocol_summary: DSSTox (CPDBAS) Carcinogenic Potency Database Summary Mouse Bioassay Results
measurement_conditions: TD50_Mouse_Note: TD50 is harmonic mean of more than one positive test; TargetSites_Mouse_Female: liver; lung; mammary gland; uterus
measurement_kind: Potency

Look up Potency: ClCCCl
1.39 mmol/kg/day

====

Tested on: mouse carcinogenicity bioassay, TD50 from CPDB
protocol_summary: DSSTox (CPDBAS) Carcinogenic Potency Database Summary Mouse Bioassay Results
measurement_conditions: TargetSites_Mouse_Female: liver; lung
measurement_kind: Potency

Fill in: Potency of S=[Se] is ___
0.624 mmol/kg/day

====

Test system: mouse carcinogenicity bioassay, TD50 from CPDB
protocol_summary: DSSTox (CPDBAS) Carcinogenic Potency Database Summary Mouse Bioassay Results
measurement_conditions: TD50_Mouse_Note: TD50 is harmonic mean of more than one positive test; greater than ten-fold variation among TD50 values for positive res; TargetSites_Mouse_Female: harderian gland; hematopoietic system; liver; lung; mammary gland; ovary; stomach; vascular system
measurement_kind: Potency

Recorded Potency of C=CC=C , please.
0.257 mmol/kg/day

====

System: mouse carcinogenicity bioassay, TD50 from CPDB
protocol_summary: DSSTox (CPDBAS) Carcinogenic Potency Database Summary Mouse Bioassay Results
measurement_conditions: TD50_Mouse_Note: positive test results only by intraperitoneal or intravenous injection; TD50 is harmonic mean of more than one positive; TargetSites_Mouse_Female: lung
measurement_kind: Potency

>>> df
                    record_smiles                result
0  O=C(O)CCCc1ccc(N(CCCl)CCCl)cc1  0.000437 mmol/kg/day

Then this molecule:
Can you share its Potency? I mean this molecule: N[C@@H](Cc1ccc(N(CCCl)CCCl)cc1)C(=O)O
0.000491 mmol/kg/day
